// Bacillus subtilis ATCC 6633 MIC records
Write the number in µg/mL without appending the unit.

Problem: // fetch MIC given entry C=CCO/N=C(\C(=O)NC1C(=O)N2C(C(=O)[O-])=C(CSc3cc[n+](C)c4cc(N5CCN(C)CC5)c(F)cc34)CSC12)c1csc(N)n1 (stereo not drawn) [Compound I-22]
Result: 0.39

Problem: Given the compound C#CCO/N=C(\C(=O)NC1C(=O)N2C(C(=O)[O-])=C(CSc3cc[n+](CC=C)c4cc(N5CCN(CC)CC5)c(F)cc34)CSC12)c1csc(N)n1 (stereo not drawn) [Compound I-51] , write its reported MIC.
Result: 0.78

Problem: Please supply the value of reported MIC for the item CCN1CCN(c2cc3c(cc2F)c(SCC2=C(C(=O)[O-])N4C(=O)C(NC(=O)/C(=N\OC)c5csc(N)n5)C4SC2)cc[n+]3C2CC2)CC1 (stereo not drawn) [Compound I-7]
Result: 0.2

====

# Tested on: Staphylococcus epidermidis ATCC 12228
# ASSAY_NOTES: MIC, two-fold dilution method, Staphylococcus epidermidis ATCC 12228
# Type: cell-based
# RECORDED_CONDITIONS: ATCC12228, Muller Hinton Broth, 10^6 CFU per ml, 37° C., 18 to 20 hours, read-out: Antibacterial Activity (MIC)
OBSERVABLE: MIC

Problem: Give a short answer stating reported MIC for CO/N=C(\C(=O)NC1C(=O)N2C(C(=O)[O-])=C(CSc3cc[n+](C4CC4)c4cc(N5CCN(C)CC5)c(F)cc34)CSC12)c1csc(N)n1 (stereo not drawn) .
Result: 0.39 mg/L

Problem: Provide only the value of recorded MIC for CO/N=C(\C(=O)NC1C(=O)N2C(C(=O)[O-])=C(CSc3cc[n+](C)c4cc(N5CCN(C)CC5)c(F)cc34)CSC12)c1csc(N)n1 (stereo not drawn)
Result: 0.78 mg/L

Problem: Tell me measured MIC for C#CCO/N=C(\C(=O)NC1C(=O)N2C(C(=O)[O-])=C(CSc3cc[n+](C)c4cc(N5CCNCC5)c(F)cc34)CS[C@H]12)c1csc(N)n1 (stereo partly drawn) please.
Result: 0.78 mg/L

Problem: Please give measured MIC of the following entry: C#CCO/N=C(\C(=O)NC1C(=O)N2C(C(=O)[O-])=C(CSc3cc[n+](CC=C)c4cc(N5CCN(C)CC5)c(F)cc34)CSC12)c1csc(N)n1 (stereo not drawn)
Result: 3.13 mg/L

Problem: Note MIC for the compound shown: C#CCO/N=C(\C(=O)NC1C(=O)N2C(C(=O)[O-])=C(CSc3cc[n+](CC)c4cc(N5CCN(CC)CC5)c(F)cc34)CSC12)c1csc(N)n1 (stereo not drawn)
Result: 0.78 mg/L

Problem: Look up MIC of C=CCO/N=C(\C(=O)NC1C(=O)N2C(C(=O)[O-])=C(CSc3cc[n+](CC=C)c4cc(N5CCN(CC)CC5)c(F)cc34)CSC12)c1csc(N)n1 (stereo not drawn) and report it.
Result: 0.78 mg/L

====

Field: MIC. Provide a value for each of the molecules that follow.
Answer format: number, then unit.

Problem: Lab note: Bacillus subtilis ATCC 6633 assay, enter MIC for C=CCO/N=C(\C(=O)NC1C(=O)N2C(C(=O)[O-])=C(CSc3cc[n+](CC=C)c4cc(N5CCN(C)CC5)c(F)cc34)CSC12)c1csc(N)n1 (centres unmarked) [Compound I-34] here
Result: 0.78 µg/mL

Problem: State recorded MIC with Bacillus subtilis ATCC 6633, entry C=CC[n+]1ccc(SCC2=C(C(=O)[O-])N3C(=O)C(NC(=O)/C(=N\OC)c4csc(N)n4)[C@H]3SC2)c2cc(F)c(N3CCNCC3)cc21 (some centres unmarked) [Compound I-13] , no comment.
Result: 0.39 µg/mL

Problem: Specify MIC for C#CCO/N=C(\C(=O)NC1C(=O)N2C(C(=O)[O-])=C(CSc3cc[n+](CC)c4cc(N5CCNCC5)c(F)cc34)CS[C@H]12)c1csc(N)n1 (some centres unmarked) [Compound I-45] , system Bacillus subtilis ATCC 6633.
Result: 0.1 µg/mL

Problem: Find MIC for C=CCO/N=C(\C(=O)NC1C(=O)N2C(C(=O)[O-])=C(CSc3cc[n+](CC)c4cc(N5CCNCC5)c(F)cc34)CS[C@H]12)c1csc(N)n1 (some centres unmarked) [Compound I-29] on Bacillus subtilis ATCC 6633 and write it down.
Result: 0.39 µg/mL

Problem: Find MIC for CCN1CCN(c2cc3c(cc2F)c(SCC2=C(C(=O)[O-])N4C(=O)C(NC(=O)/C(=N\OC(C)(C)C(=O)O)c5csc(N)n5)C4SC2)cc[n+]3C2CC2)CC1 (centres unmarked) [Compound I-59] on Bacillus subtilis ATCC 6633 and write it down.
Result: 0.39 µg/mL

====

OBSERVABLE: MIC (µg/mL)
Kindly answer with a numeric value in µg/mL, unit omitted.

Problem: Look up Bacillus subtilis ATCC 6633 data: MIC of C=CCO/N=C(\C(=O)NC1C(=O)N2C(C(=O)[O-])=C(CSc3cc[n+](C4CC4)c4cc(N5CCNCC5)c(F)cc34)CS[C@H]12)c1csc(N)n1 (stereo partly drawn) , then report it.
Result: 0.2

Problem: Name the value of MIC reported for C=CC[n+]1ccc(SCC2=C(C(=O)[O-])N3C(=O)C(NC(=O)/C(=N\OC)c4csc(N)n4)C3SC2)c2cc(F)c(N3CCN(C)CC3)cc21 (stereo not drawn) when tested on Bacillus subtilis ATCC 6633.
Result: 0.1

Problem: Name the recorded MIC of C=CCO/N=C(\C(=O)NC1C(=O)N2C(C(=O)[O-])=C(CSc3cc[n+](C)c4cc(N5CCNCC5)c(F)cc34)CS[C@H]12)c1csc(N)n1 (stereo partly drawn) , assay system Bacillus subtilis ATCC 6633.
Result: 0.39

====

# Tested on: Pseudomonas aeurginosa NCTC 10490
# ASSAY_NOTES: MIC, two-fold dilution method, Pseudomonas aeurginosa NCTC 10490
# Type: cell-based
# RECORDED_CONDITIONS: NCTC10490, Muller Hinton Broth, 10^6 CFU per ml, 37° C., 18 to 20 hours, read-out: Antibacterial Activity (MIC)
I'd appreciate it if you could supply MIC values for the items below.
Only the number, expressed in µg/mL, is required.

Problem: Specify MIC for CCN1CCN(c2cc3c(cc2F)c(SCC2=C(C(=O)[O-])N4C(=O)C(NC(=O)/C(=N\OC(C)(C)C(=O)O)c5csc(N)n5)C4SC2)cc[n+]3C)CC1 (centres unmarked) and stop.
Result: 0.39

Problem: Supply recorded MIC for C=CCO/N=C(\C(=O)NC1C(=O)N2C(C(=O)[O-])=C(CSc3cc[n+](C)c4cc(N5CCN(C)CC5)c(F)cc34)CSC12)c1csc(N)n1 (centres unmarked) here.
Result: 3.13

Problem: Please give measured MIC of the following entry: C=CCO/N=C(\C(=O)NC1C(=O)N2C(C(=O)[O-])=C(CSc3cc[n+](CC=C)c4cc(N5CCNCC5)c(F)cc34)CS[C@H]12)c1csc(N)n1 (some centres unmarked)
Result: 3.13

Problem: State its MIC: CO/N=C(\C(=O)NC1C(=O)N2C(C(=O)[O-])=C(CSc3cc[n+](C)c4cc(N5CCNCC5)c(F)cc34)CSC12)c1csc(N)n1 (centres unmarked)
Result: 1.56

Problem: Return reported MIC. Input molecule: CO/N=C(\C(=O)NC1C(=O)N2C(C(=O)[O-])=C(CSc3cc[n+](C4CC4)c4cc(N5CCNCC5)c(F)cc34)CS[C@H]12)c1csc(N)n1 (some centres unmarked)
Result: 3.13

Problem: Give MIC for CCN1CCN(c2cc3c(cc2F)c(SCC2=C(C(=O)[O-])N4C(=O)C(NC(=O)/C(=N\OC)c5csc(N)n5)C4SC2)cc[n+]3C)CC1 (centres unmarked)
Result: 0.78

Problem: Specify reported MIC for the molecule shown: C=CCO/N=C(\C(=O)NC1C(=O)N2C(C(=O)[O-])=C(CSc3cc[n+](CC)c4cc(N5CCN(C)CC5)c(F)cc34)CSC12)c1csc(N)n1 (centres unmarked)
Result: 6.25

Problem: // fetch MIC given entry C=CCO/N=C(\C(=O)NC1C(=O)N2C(C(=O)[O-])=C(CSc3cc[n+](CC=C)c4cc(N5CCN(CC)CC5)c(F)cc34)CSC12)c1csc(N)n1 (centres unmarked)
Result: 0.78

Problem: Tell me MIC reported for C=CCO/N=C(\C(=O)NC1C(=O)N2C(C(=O)[O-])=C(CSc3cc[n+](C4CC4)c4cc(N5CCN(CC)CC5)c(F)cc34)CSC12)c1csc(N)n1 (centres unmarked)
Result: 0.78

Problem: Report measured MIC; entry is CO/N=C(\C(=O)NC1C(=O)N2C(C(=O)[O-])=C(CSc3cc[n+](C)c4cc(N5CCN(C)CC5)c(F)cc34)CSC12)c1csc(N)n1 (centres unmarked)
Result: 3.13

Problem: For the molecule C#CCO/N=C(\C(=O)NC1C(=O)N2C(C(=O)[O-])=C(CSc3cc[n+](CC)c4cc(N5CCNCC5)c(F)cc34)CS[C@H]12)c1csc(N)n1 (some centres unmarked) , give its reported MIC.
Result: 1.56
